Data provenance is paper PMC10056636.

Listed here: items and their measured MIC.
# Tested on: Pseudomonas aeruginosa (ATCC 27853)
# ASSAY_SUMMARY: Antibacterial whole-cell growth inhibition (MIC, CO-ADD)
# Type: cell-based
# CONDITIONS: P. aeruginosa; two replicates per cell
# Description: Antibacterial screening was carried out by the serial dilution method. All bacteria were cultured in the cation-adjusted Mueller Hinton broth (CAMHB) at 37 °C overnight. A sample of each culture was then diluted 40-fold in fresh broth and incubated at 37 °C for 1.5–3 h. The resultant mid-log phase cultures were diluted (CFU/mL measured by OD600) and then added into each well containing a test compound, giving a cell density of 5 × 10^5 CFU/mL and a total volume of 50 µL. […]

Some solved cases for reference:
CC(=O)O[C@H]1C[C@@]2(C)[C@@H](C[C@@H](O)[C@H]3[C@@]4(C)CC[C@H](NCCCNCCCCN)[C@@H](C)[C@@H]4CC[C@@]32C)/C1=C(\CCC=C(C)C)C(=O)O :: >32 >32 µg/mL
COC(=O)/C(CCC=C(C)C)=C1\[C@@H](OC(C)=O)C[C@@]2(C)[C@@H]1C[C@@H](O)[C@@H]1[C@@]3(C)CC[C@H](NCCCNCCCCN)[C@@H](C)C3CC[C@@]12C (stereo partly drawn) :: >32 >32 µg/mL

QUERY: I would be grateful if you could share the reported MIC for "CC(=O)O[C@H]1C[C@@]2(C)[C@@H](C[C@@H](O)[C@H]3[C@@]4(C)CC[C@@H](O)[C@@H](C)[C@@H]4CC[C@@]32C)/C1=C(\CCC=C(C)C)C(=O)O" .
RESULT: >32 >32 µg/mL
